Tested on: KM-20L2
Test Details: NCI tumour cell line growth inhibition, 48 h
Calls of active or inactive are those of the source. Cut-off read from the data, not from the text of the source: active = GI50 up to about 1.1 µM and inactive = higher.
Would you mind answering with one of these outcomes? active, inactive

Reference set (4 entries):
Molecule: CCOC(=O)c1ccc(N2C(=O)/C(=C/c3ccc(N(CCC#N)CCC#N)cc3)N=C2c2cc([N+](=O)[O-])ccc2Cl)cc1
Class: inactive

Molecule: COc1cc2cc3c4c(cc(OC)c(OC)c4c2cc1OC)CCN3C(=O)CCCC(=O)O
Class: inactive

Molecule: O=C1CCN2CCC(=O)c3c2c(cc2ccccc32)N1
Class: inactive

Molecule: NCCOCCOCC(=O)O
Class: inactive

*Q* // return assay outcome for N=C(N)/N=C(/C=C/c1ccccc1)CC1OC(=O)c2ccccc21 (stereo unspecified)
*A* inactive

*Q* Please answer likewise for O=C(CC1C(=O)c2ccccc2C1=C1C(=O)c2ccccc2C1=O)c1ccccc1 (stereo unspecified)
*A* inactive

*Q* Please answer likewise for COc1ccc(CN(O)C2C(CO)OC(n3cc(I)c(=O)[nH]c3=O)C2O)cc1 (stereo unspecified)
*A* inactive

*Q* Please answer likewise for O=C(N/C(=C\c1ccc([N+](=O)[O-])cc1)c1nc2ccccc2s1)c1ccccc1
*A* inactive

*Q* Please answer likewise for CCCCOP1(=O)CC(C)=C(Cl)C(C)(OC)C1 (stereo unspecified)
*A* inactive

*Q* Please answer likewise for O=C(Nc1ccc(Sc2ccc(/N=N/c3c(O)c(S(=O)(=O)O)cc4cc(S(=O)(=O)O)ccc34)cc2)cc1)c1ccc(/N=N/c2c(O)ccc3c(S(=O)(=O)O)cc(S(=O)(=O)O)cc23)cc1
*A* inactive

*Q* Please answer likewise for CCOc1ccc(NCC2CC/C(=C\c3ccc(Cl)cc3)C2=O)cc1 (stereo unspecified)
*A* inactive

*Q* Please answer likewise for COc1ccc(/C=C/CO)cc1OC
*A* inactive

*Q* Please answer likewise for O=C(CCC(=O)Nc1ccc(Cl)c(Cl)c1)CC(=O)c1ccc(F)cc1
*A* inactive

*Q* Please answer likewise for CCCCCCCCCC[S+]([O-])CC(CO)NC(=O)/C=C/c1c(C)nc(O)nc1O (stereo unspecified)
*A* active

*Q* Please answer likewise for CC1=NN(C(=O)c2ccc(C)cc2)C(=O)C1/N=N/c1ccccc1C(=O)O (stereo unspecified)
*A* inactive

*Q* Please answer likewise for COc1cc(NCc2ccc3nc(N)nc(N)c3c2C)cc(OC)c1OC
*A* active
